- test.system: ~100 representative kinases (Homo sapiens)
- Construct: Recombinant protein kinase domains with a concentration of 2 μM
- Sequence (P45985 1-399): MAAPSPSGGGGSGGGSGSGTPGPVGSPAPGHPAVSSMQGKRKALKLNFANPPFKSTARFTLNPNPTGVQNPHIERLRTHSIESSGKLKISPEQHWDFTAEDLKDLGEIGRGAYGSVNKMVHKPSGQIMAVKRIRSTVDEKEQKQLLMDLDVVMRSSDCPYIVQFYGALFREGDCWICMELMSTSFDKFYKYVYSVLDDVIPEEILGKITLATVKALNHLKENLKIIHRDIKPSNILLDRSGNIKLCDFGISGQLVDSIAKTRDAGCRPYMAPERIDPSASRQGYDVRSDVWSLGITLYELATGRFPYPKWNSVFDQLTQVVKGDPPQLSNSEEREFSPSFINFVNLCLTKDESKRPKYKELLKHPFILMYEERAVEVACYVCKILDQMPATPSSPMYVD
- run.description: DSF 100 kinase selectivity screen;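 for dTm: compound tested at 20 µM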
- Type: binding
- recorded.conditions: protein MAP2K4; average of three replicates
parameter: dTm (K)
Give the value, in units of K, as a plain number.

Here is how some compounds turned out for dTm.
{"columns": ["compound", "dTm [K]"],
 "data": [
  ["Cc1ccc(-n2nc(C(C)(C)C)cc2NC(=O)Nc2cccc(-c3c[nH]c4nc(Cl)nc(N5CCOCC5)c34)c2)cc1", 1.92],
  ["Cc1cc(NC(=O)C2(C(=O)Nc3cccc(-c4c[nH]c5ncnc(N6CCOCC6)c45)c3)CC2)ccc1F", 7.49],
  ["COc1cc(S(C)(=O)=O)ccc1Nc1nc(N(C)C)c2c(Cl)c[nH]c2n1", 4.74],
  ["O=C(Nc1cccc(-c2c[nH]c3ncnc(N4CCOCC4)c23)c1)C1(C(=O)Nc2ccc(F)c(Cl)c2)CC1", 6.47],
  ["O=C(Nc1cccc(-c2c[nH]c3ncnc(N4CCOCC4)c23)c1)C1(C(=O)Nc2cc(Br)c(F)cc2F)CC1", 5.47]
]}

[ask] Using the record for COc1cc2c(Oc3ccc(NC(=O)C4(C(=O)Nc5ccc(F)cc5)CC4)cc3F)ccnc2cc1OCCCN1CCOCC1 [Foretinib, reference compound] , report its dTm.
[reply] 2.73

[ask] If you can, please state the reported dTm value of `O=C(Nc1cccc(-c2c[nH]c3ncnc(N4CCOCC4)c23)c1)C1(C(=O)Nc2ccc(F)c(Br)c2)CC1` .
[reply] 6.16

[ask] # dTm lookup, item `C[C@@H]1CN(c2cc(-c3n[nH]c4ccc(OC5(C)CC5)cc34)ncn2)C[C@H](C)O1`
[reply] 0.87

[ask] Query: dTm; subject: Cc1ccc(C(=O)Nc2ccc(CN3CCN(C)CC3)c(C(F)(F)F)c2)cc1C#Cc1cnc2[nH]ncc2c1 [GZD-824, reference compound]
[reply] 1.62

[ask] I would be grateful if you could share the reported dTm for `O=C(Nc1ccccc1)C1(C(=O)Nc2cccc(-c3c[nH]c4ncnc(N5CCOCC5)c34)c2)CC1` .
[reply] 5.86

====

Parameter dTm: see the listing below.
- test.system: ~100 representative kinases (Homo sapiens, UniProt P53355)
- Construct: Recombinant protein kinase domains with a concentration of 2 μM
- Sequence (P53355 whole entry, the tested form may be a part): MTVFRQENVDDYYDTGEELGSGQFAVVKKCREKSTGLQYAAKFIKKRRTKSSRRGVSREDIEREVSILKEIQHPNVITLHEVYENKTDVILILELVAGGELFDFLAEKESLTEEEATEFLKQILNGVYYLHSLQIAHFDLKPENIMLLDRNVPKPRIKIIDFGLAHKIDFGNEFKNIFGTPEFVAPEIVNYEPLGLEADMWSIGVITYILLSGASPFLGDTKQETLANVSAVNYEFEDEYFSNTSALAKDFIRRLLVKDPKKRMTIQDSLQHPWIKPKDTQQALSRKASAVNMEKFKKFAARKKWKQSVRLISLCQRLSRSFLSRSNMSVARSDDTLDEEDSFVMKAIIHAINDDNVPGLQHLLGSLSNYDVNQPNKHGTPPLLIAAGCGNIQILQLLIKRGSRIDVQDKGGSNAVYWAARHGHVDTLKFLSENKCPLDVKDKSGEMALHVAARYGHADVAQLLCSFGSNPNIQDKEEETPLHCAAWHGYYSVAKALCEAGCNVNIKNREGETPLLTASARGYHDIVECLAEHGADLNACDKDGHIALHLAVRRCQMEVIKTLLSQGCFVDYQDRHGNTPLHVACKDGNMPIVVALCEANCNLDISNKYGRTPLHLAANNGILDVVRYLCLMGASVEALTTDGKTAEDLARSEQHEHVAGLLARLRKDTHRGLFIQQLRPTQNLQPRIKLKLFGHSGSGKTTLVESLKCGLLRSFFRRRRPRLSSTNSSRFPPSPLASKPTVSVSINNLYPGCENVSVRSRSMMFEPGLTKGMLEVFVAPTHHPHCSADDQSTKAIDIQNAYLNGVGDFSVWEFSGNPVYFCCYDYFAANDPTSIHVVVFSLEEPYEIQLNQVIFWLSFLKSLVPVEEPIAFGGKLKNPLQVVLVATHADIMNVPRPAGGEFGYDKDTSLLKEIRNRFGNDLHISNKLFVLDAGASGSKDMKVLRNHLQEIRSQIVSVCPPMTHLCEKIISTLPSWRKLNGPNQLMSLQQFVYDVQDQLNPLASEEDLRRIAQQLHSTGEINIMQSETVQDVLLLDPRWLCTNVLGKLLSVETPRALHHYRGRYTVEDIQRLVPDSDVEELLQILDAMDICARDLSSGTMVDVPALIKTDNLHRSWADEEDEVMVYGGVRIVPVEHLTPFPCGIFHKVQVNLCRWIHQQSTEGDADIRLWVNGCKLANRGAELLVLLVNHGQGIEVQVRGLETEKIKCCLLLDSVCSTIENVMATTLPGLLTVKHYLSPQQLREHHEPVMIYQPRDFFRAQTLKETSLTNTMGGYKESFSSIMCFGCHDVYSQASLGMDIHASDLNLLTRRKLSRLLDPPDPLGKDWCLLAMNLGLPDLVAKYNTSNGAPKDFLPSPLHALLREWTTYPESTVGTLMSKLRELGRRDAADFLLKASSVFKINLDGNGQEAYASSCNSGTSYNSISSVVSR
- run.description: DSF 100 kinase selectivity screen;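 for dTm: compound tested at 20 µM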
- Format: binding
- recorded.conditions: Protein DAPK1; average of three replicates
Report the figure in K without appending any unit label.

[ask] Reported dTm for `Cc1ccc(C(=O)Nc2ccc(CN3CCN(C)CC3)c(C(F)(F)F)c2)cc1C#Cc1c[nH]c2ncnc(N3CCOCC3)c12` : what is it?
[reply] 0.30

[ask] Endpoint output: dTm of `O=C(Nc1cccc(-c2c[nH]c3ncnc(N4CCOCC4)c23)c1)C1(C(=O)Nc2cc(Br)c(F)cc2F)CC1` . Value?
[reply] -0.48

[ask] Quick check: dTm of `CC(C)(C)c1cccc(NC(=O)C2(C(=O)Nc3cccc(-c4c[nH]c5ncnc(N6CCOCC6)c45)c3)CC2)c1` ?
[reply] -2.58

[ask] Which dTm is reported for this compound? Cc1ccc(C(=O)Nc2ccc(CN3CCN(C)CC3)c(C(F)(F)F)c2)cc1C#Cc1cnc2[nH]ncc2c1 [GZD-824, reference compound]
[reply] 0.59

[ask] Any idea what its dTm is? The compound is `O=C(Nc1cccc(-c2c[nH]c3ncnc(N4CCOCC4)c23)c1)C1(C(=O)Nc2ccc(F)c(Cl)c2)CC1`
[reply] -0.23

[ask] Please give the measured dTm for this compound: `CCc1ccc(NC(=O)C2(C(=O)Nc3cccc(-c4c[nH]c5ncnc(N6CCOCC6)c45)c3)CC2)cc1`
[reply] -0.75

[ask] Could you share which dTm value was measured for `COc1ccc(NC(=O)C2(C(=O)Nc3cccc(-c4c[nH]c5ncnc(N6CCOCC6)c45)c3)CC2)cc1` ?
[reply] -0.99

====

- Tested on: ~100 representative kinases
- run.description: DSF 100 kinase selectivity screen
- Type: binding
- recorded.conditions: number of kinases with thermal shift >5 K divided by total number of kinases screened
parameter: S(5K)
Respond numerically, and do not add a unit to the figure.

Answered examples (5):
{"columns": ["compound", "S(5K)"],
 "data": [
  ["O=C(Nc1cccc(-c2c[nH]c3ncnc(N4CCOCC4)c23)c1)c1cccn(-c2ccc(F)cc2)c1=O [Compound 4]", 0.33],
  ["O=C(Nc1cccc(-c2c[nH]c3ncnc(N4CCOCC4)c23)c1)C1(C(=O)Nc2cc(Br)c(F)cc2F)CC1 [Compound 25]", 0.10],
  ["COc1cc(S(C)(=O)=O)ccc1Nc1nc(N(C)C)c2c(Cl)c[nH]c2n1 [Compound 37]", 0.05],
  ["Cc1cc(F)ccc1NC(=O)C1(C(=O)Nc2cccc(-c3c[nH]c4ncnc(N5CCOCC5)c34)c2)CC1 [Compound 24]", 0.12],
  ["CC(=O)N1CCN(c2nc(Cl)nc3[nH]cc(-c4cccc(NC(=O)Nc5cc(C(C)(C)C)nn5-c5ccc(C)cc5)c4)c23)CC1 [Compound 31]", 0.15]
]}

Turning to the following compound.
[ask] Report S(5K) for CCSc1nc(NC)c2c(-c3cccc(NC(=O)Nc4cc(C(C)(C)C)nn4-c4ccc(C)cc4)c3)c[nH]c2n1 [Compound 32] tested on ~100 representative kinases.
[reply] 0.10

====

- test.system: ~100 representative kinases (Homo sapiens, UniProt P15056)
- Construct: Recombinant protein kinase domains with a concentration of 2 μM
- Sequence (P15056 whole entry, the tested form may be a part): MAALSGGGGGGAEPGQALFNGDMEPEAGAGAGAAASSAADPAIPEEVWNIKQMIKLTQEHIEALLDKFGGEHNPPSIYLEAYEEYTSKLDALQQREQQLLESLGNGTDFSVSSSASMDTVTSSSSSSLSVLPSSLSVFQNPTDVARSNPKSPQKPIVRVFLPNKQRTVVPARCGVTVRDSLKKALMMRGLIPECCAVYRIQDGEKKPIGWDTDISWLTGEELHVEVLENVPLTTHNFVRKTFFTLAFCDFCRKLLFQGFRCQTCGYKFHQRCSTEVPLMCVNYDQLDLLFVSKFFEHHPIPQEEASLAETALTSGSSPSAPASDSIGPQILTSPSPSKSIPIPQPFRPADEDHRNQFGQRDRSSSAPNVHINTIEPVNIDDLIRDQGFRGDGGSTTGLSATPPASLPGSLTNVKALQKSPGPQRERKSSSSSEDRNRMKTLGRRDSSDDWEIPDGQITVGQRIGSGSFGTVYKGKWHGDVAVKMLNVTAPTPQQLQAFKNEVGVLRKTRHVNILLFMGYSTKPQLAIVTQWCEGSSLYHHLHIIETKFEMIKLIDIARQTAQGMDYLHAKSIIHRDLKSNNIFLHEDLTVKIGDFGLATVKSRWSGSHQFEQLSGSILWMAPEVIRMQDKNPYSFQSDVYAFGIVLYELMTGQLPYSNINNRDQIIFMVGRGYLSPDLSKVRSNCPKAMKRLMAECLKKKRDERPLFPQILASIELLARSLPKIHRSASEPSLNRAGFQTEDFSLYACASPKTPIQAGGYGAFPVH
- run.description: DSF 100 kinase selectivity screen;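 for dTm: compound tested at 20 µM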
- Format: binding
- recorded.conditions: Protein BRAF; average of three replicates
Outcome: Y for dTm of at least 9 K; N for anything lower.

Worked examples, 3 molecules total:
{"columns": ["molecule", "category"],
 "data": [
  ["COc1ccc(NC(=O)C2(C(=O)Nc3cccc(-c4c[nH]c5ncnc(N6CCOCC6)c45)c3)CC2)cc1", "N"],
  ["CC(C)(C)c1cccc(NC(=O)C2(C(=O)Nc3cccc(-c4c[nH]c5ncnc(N6CCOCC6)c45)c3)CC2)c1", "Y"],
  ["COc1cc(C(=O)N2CCOCC2)c(F)cc1Nc1nc(N(C)C)c2c(Cl)c[nH]c2n1", "N"]
]}

[ask] // inclusive: dTm at least 9 K? input: `Cc1ccc(-n2nc(C(C)(C)C)cc2NC(=O)Nc2cccc(-c3c[nH]c4ncnc(N5CCOCC5)c34)c2)cc1`
[reply] Y

[ask] In plain terms: is recorded dTm at least 9 K for `O=C(Nc1ccccc1)C1(C(=O)Nc2cccc(-c3c[nH]c4ncnc(N5CCOCC5)c34)c2)CC1` ?
[reply] N

[ask] hey, is dTm for this one >= 9 K? `O=C(Nc1ccc(F)cc1)C1(C(=O)Nc2cccc(-c3c[nH]c4ncnc(N5CCOCC5)c34)c2)CC1`
[reply] Y

[ask] Determine whether this molecule has dTm no lower than 9 K: `Cc1cc(NC(=O)C2(C(=O)Nc3cccc(-c4c[nH]c5ncnc(N6CCOCC6)c45)c3)CC2)ccc1F`
[reply] Y

[ask] Identify whether the reported dTm of the following molecule is 9 K or greater: `O=C(Nc1cccc(-c2c[nH]c3ncnc(N4CCOCC4)c23)c1)C1(C(=O)Nc2ccc(F)c(Cl)c2)CC1`
[reply] Y

====

- test.system: ~100 representative kinases (Homo sapiens, UniProt O75385)
- Construct: Recombinant protein kinase domains with a concentration of 2 μM
- Sequence (O75385 whole entry, the tested form may be a part): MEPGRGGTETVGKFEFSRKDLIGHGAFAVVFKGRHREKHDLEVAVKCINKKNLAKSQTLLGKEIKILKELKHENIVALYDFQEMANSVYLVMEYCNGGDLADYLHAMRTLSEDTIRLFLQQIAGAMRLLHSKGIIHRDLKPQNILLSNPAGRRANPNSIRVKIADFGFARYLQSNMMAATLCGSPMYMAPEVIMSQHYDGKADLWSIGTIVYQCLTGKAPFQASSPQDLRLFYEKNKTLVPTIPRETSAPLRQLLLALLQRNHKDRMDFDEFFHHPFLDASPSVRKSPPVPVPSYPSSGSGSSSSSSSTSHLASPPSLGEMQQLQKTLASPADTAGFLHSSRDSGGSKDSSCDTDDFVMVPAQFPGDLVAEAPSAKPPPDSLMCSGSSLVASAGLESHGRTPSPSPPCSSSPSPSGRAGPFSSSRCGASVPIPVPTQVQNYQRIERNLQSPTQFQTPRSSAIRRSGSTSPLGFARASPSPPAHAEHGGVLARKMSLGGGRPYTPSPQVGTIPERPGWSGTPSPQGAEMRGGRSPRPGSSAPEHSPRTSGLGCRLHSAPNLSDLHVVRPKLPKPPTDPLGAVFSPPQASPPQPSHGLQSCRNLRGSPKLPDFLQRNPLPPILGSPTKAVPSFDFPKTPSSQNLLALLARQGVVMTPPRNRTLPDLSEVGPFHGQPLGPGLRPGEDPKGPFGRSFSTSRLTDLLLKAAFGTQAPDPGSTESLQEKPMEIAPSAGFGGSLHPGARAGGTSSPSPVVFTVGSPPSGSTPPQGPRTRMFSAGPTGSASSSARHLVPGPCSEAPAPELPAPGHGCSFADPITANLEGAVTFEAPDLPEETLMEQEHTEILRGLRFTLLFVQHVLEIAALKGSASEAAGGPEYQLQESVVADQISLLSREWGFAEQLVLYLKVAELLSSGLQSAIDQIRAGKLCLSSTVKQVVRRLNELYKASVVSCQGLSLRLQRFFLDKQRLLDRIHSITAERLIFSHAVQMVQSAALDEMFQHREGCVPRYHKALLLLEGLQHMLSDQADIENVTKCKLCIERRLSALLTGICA
- run.description: DSF 100 kinase selectivity screen;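 for dTm: compound tested at 20 µM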
- Assay type: binding
- recorded.conditions: Protein ULK1; DSF; average of three replicates
Each entry below carries its recorded dTm.
Give the quantity in K, number only.

Worked examples follow.
{"columns": ["compound", "endpoint.unit", "value.observed"],
 "data": [
  ["CNC(=O)c1cc(Oc2ccc(NC(=O)Nc3cc(C(C)(C)C)nn3-c3ccc4ncccc4c3)c(F)c2)ccn1 [Rebastinib, reference compound]", "K", 5.73],
  ["Cc1ccc(C(=O)Nc2ccc(CN3CCN(C)CC3)c(C(F)(F)F)c2)cc1C#Cc1c[nH]c2ncnc(N3CCOCC3)c12", "K", 6.89],
  ["CCNc1nc(Nc2cc(F)c(C(=O)N3CCOCC3)cc2OC)ncc1C(F)(F)F", "K", 1.06]
]}

[ask] Fill in the blank: the reported dTm of `O=C(Nc1cccc(-c2c[nH]c3ncnc(N4CCOCC4)c23)c1)C1(C(=O)Nc2cc(Br)c(F)cc2F)CC1` is ____.
[reply] 7.16

[ask] Find the recorded dTm belonging to `C[C@@H]1CN(c2cc(-c3n[nH]c4ccc(OC5(C)CC5)cc34)ncn2)C[C@H](C)O1` and report it.
[reply] 0.01

[ask] For the compound `COc1cc(C(=O)N2CCOCC2)c(F)cc1Nc1nc(N(C)C)c2c(Cl)c[nH]c2n1` , what dTm is on record?
[reply] -0.79

[ask] Reported dTm, compound `COc1cc(S(C)(=O)=O)ccc1Nc1nc(N(C)C)c2c(Cl)c[nH]c2n1` : ____
[reply] -0.88

[ask] Recorded dTm of Cc1ccc(C(=O)Nc2ccc(CN3CCN(C)CC3)c(C(F)(F)F)c2)cc1C#Cc1cnc2[nH]ncc2c1 [GZD-824, reference compound] , please.
[reply] 6.60

[ask] dTm for `Cn1cc(-c2c[nH]c3ncnc(N4CCOCC4)c23)cc1C#N` ?
[reply] 1.48

[ask] Report dTm for `Cc1ccc(-n2nc(C(C)(C)C)cc2NC(=O)Nc2cccc(-c3c[nH]c4nc(Cl)nc(N5CCOCC5)c34)c2)cc1` please.
[reply] 2.91
